A collection of compounds and their measured MIC
Test system: Staphylococcus aureus
Test: Antibacterial activity against Staphylococcus aureus ATCC 25923 after 18 hrs by agar dilution technique
Format: functional
Details: ATCC 25923, 18 h
READOUT_NAME: MIC (µg/mL)

COMPOUND	UNIT_OF_MEASUREMENT	TEST_VALUE
Cc1ccc(/C=C2\CC[C@]3(C2=O)[C@H](c2ccc(C)cc2)C(c2ccccc2)=NN3c2ccccc2)cc1	µg/mL	2.5
O=C1C2(CCC13C(c1ccccc1)C(c1ccccc1)=NN3c1ccccc1)C(c1ccccc1)C(c1ccccc1)=NN2c1ccccc1 (configuration not stated)	µg/mL	1.3
Cc1ccc(N2N=C(c3ccccc3)[C@@H](c3ccccc3)[C@@]23CC/C(=C\c2ccccc2)C3=O)cc1	µg/mL	0.6
O=C1C2(CCC13C(c1ccc(Cl)cc1)C(c1ccccc1)=NN3c1ccccc1)C(c1ccc(Cl)cc1)C(c1ccccc1)=NN2c1ccccc1 (configuration not stated)	µg/mL	10
Cc1ccc(N2N=C(c3ccccc3)C(c3ccc(Cl)cc3)C23CCC2(C3=O)C(c3ccc(Cl)cc3)C(c3ccccc3)=NN2c2ccc(C)cc2)cc1 (configuration not stated)	µg/mL	10
O=C1/C(=C/c2ccc(F)cc2)CC[C@@]12[C@H](c1ccc(F)cc1)C(c1ccccc1)=NN2c1ccccc1	µg/mL	10
Cc1ccc(N2N=C(c3ccccc3)C(c3ccccc3)C23CCC2(C3=O)C(c3ccccc3)C(c3ccccc3)=NN2c2ccc(C)cc2)cc1 (configuration not stated)	µg/mL	2.5
